tested on: Balb/c mice; assay: Prevention of glucocorticoid (betamethasone)-induced dermal atrophy in normal mice, dermis thickness in Van Gieson stained biopsies; assay type: in vivo, mouse; conditions: Bet. 0.2 mM + 0.008 mM test compound, topical daily, one week
MEASURED_METRIC: Thickness of dermis, mean (mm)
Give bare numbers, in mm.

Q: What Thickness of dermis, mean (mm) appears in the records for this molecule with Balb/c mice? O=C(O)CCc1cc(I)c(Oc2ccc(O)c(I)c2)c(I)c1
Result: 0.45

Q: What Thickness of dermis, mean (mm) appears in the records for this molecule with Balb/c mice? CC(C)c1cc(Oc2c(Br)cc(Cc3nnn[nH]3)cc2Br)ccc1O
Result: 0.40

Q: What Thickness of dermis, mean (mm) appears in the records for this molecule with Balb/c mice? OCc1cc(I)c(Oc2ccc(O)c(I)c2)c(I)c1
Result: 0.44

Then there is this molecule:
Q: What Thickness of dermis, mean (mm) appears in the records for this molecule with Balb/c mice? O=C(O)Cc1cc(I)c(Oc2ccc(O)c(I)c2)c(I)c1
Result: 0.45

Each recorded value in this set is attributed to patent US6380255B1.
